target: S1R (Cavia porcellus); construct: tissue Harlan-Winkelmann, Borchen, Germany; host or cells: guinea pig brain membrane homogenate; test: S1R radioligand displacement binding assay ([3H]-(+)-pentazocine); design: species or system guinea pig; conditions: ratio Ki S2R/Ki S1R
Give Selectivity (Ki S2R/Ki S1R) for every item shown.
Reply: number alone, nothing else.

Let me know recorded Selectivity (Ki S2R/Ki S1R) for OCC(CCN1CCCCC1)c1ccc2ccccc2c1 (stereo not shown) , thanks. 11

Annotate the compound COc1ccc2cc(C(CO)CCN3CCC(Cc4ccccc4)CC3)ccc2c1 (stereo not shown) with its measured Selectivity (Ki S2R/Ki S1R). 0.6

Give the measured Selectivity (Ki S2R/Ki S1R) for COc1ccc2cc(C(CO)CCN3CCOCC3)ccc2c1 (stereo not shown) 4

Determine from records and report Selectivity (Ki S2R/Ki S1R) for OCC(CCN1CCC(Cc2ccccc2)CC1)c1ccc(-c2ccccc2)cc1 (stereo not shown) 2

Provide only the value of recorded Selectivity (Ki S2R/Ki S1R) for COc1ccc2cc(C(CO)CCN(C)Cc3ccccc3)ccc2c1 (stereo not shown) 7

State, in one line, measured Selectivity (Ki S2R/Ki S1R) of CCN(CC)CCC(CO)c1ccc2cc(OC)ccc2c1 (stereo not shown) 14

State, in one line, measured Selectivity (Ki S2R/Ki S1R) of CCN(CC)CCC(CO)c1ccc2ccccc2c1 (stereo not shown) 10

Please report Selectivity (Ki S2R/Ki S1R) for the following compound: OCC(CCN1CCOCC1)c1ccc(-c2ccccc2)cc1 (stereo not shown) 24

Indicate its recorded Selectivity (Ki S2R/Ki S1R); the compound in question is CN(CCC(CO)c1ccc2ccccc2c1)Cc1ccccc1 (stereo not shown) 4

State, in one line, measured Selectivity (Ki S2R/Ki S1R) of COc1ccc2cc(C(CO)CCN3CCCCC3)ccc2c1 (stereo not shown) 32

---

target: S1R (Cavia porcellus, UniProt Q60492); construct: tissue Harlan-Winkelmann, Borchen, Germany; host or cells: guinea pig brain membrane homogenate; experiment: S1R radioligand displacement binding assay ([3H]-(+)-pentazocine); parameters: species or system guinea pig; conditions: ratio Ki S2R/Ki S1R
Sequence (Q60492 whole entry): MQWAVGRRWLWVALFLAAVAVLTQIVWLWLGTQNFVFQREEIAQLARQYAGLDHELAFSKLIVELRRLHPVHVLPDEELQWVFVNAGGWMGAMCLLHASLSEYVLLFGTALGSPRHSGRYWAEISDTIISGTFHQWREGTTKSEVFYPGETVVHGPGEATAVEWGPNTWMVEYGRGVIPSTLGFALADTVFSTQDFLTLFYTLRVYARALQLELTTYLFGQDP
Criterion: Selectivity (Ki S2R/Ki S1R) strictly less than 30. Met: condition met. Not met: condition not met.

Take the compound OCC(CCN1CCCCC1)c1ccc(-c2ccccc2)cc1 (centres unmarked) and say whether its Selectivity (Ki S2R/Ki S1R) is less than 30. condition not met

In the record for CCN(CC)CCC(CO)c1ccc(-c2ccccc2)cc1 (centres unmarked) , is Selectivity (Ki S2R/Ki S1R) less than 30? condition not met

Quick check: does OCC(CCN1CCC(Cc2ccccc2)CC1)c1ccc2ccccc2c1 (centres unmarked) have Selectivity (Ki S2R/Ki S1R) under 30? condition met

In the record for OCC(CCN1CCOCC1)c1ccc2ccccc2c1 (centres unmarked) , is Selectivity (Ki S2R/Ki S1R) less than 30? condition not met

Please check: Selectivity (Ki S2R/Ki S1R) for CN(CCC(CO)c1ccc(-c2ccccc2)cc1)Cc1ccccc1 (centres unmarked) , strictly under 30 or not? condition not met

---

molecular target: S1R (Cavia porcellus, UniProt Q60492)
Values of Ki strictly less than 90 nM map to label 1, and values of at least 90 nM map to label 0.

Here's an entry: COc1ccc2cc(C(CO)CCN3CCOCC3)ccc2c1 (stereo not drawn) . Is its Ki below 90 nM? label 0

Does the reported Ki of CN(CCC(CO)c1ccc(-c2ccccc2)cc1)Cc1ccccc1 (stereo not drawn) stay below 90 nM? label 1

is_below(Ki, 90 nM) for OCC(CCN1CCC(Cc2ccccc2)CC1)c1ccc(-c2ccccc2)cc1 (stereo not drawn) ? label 0

Bench note: check whether COc1ccc2cc(C(CO)CCN(C)Cc3ccccc3)ccc2c1 (stereo not drawn) shows Ki below 90 nM label 1

Is Ki strictly under 90 nM for the entry CCN(CC)CCC(CO)c1ccc2ccccc2c1 (stereo not drawn) ? label 0

Find out if reported Ki for OCC(CCN1CCC(Cc2ccccc2)CC1)c1ccc2ccccc2c1 (stereo not drawn) is less than 90 nM label 1

Here's an entry: CCN(CC)CCC(CO)c1ccc(-c2ccccc2)cc1 (stereo not drawn) . Is its Ki below 90 nM? label 1

Hi there! Is Ki for OCC(CCN1CCOCC1)c1ccc2ccccc2c1 (stereo not drawn) below 90 nM, do you know? label 0

Consider CCN(CC)CCC(CO)c1ccc2cc(OC)ccc2c1 (stereo not drawn) . Does its Ki lie strictly below 90 nM? label 1

FYI, the data here is from paper PMC10386076.
